These measurements were taken from paper PMC8277928.

Field: IC50. Provide a value for each of the compounds that follow.
# Test system: PNT-2 non-malignant prostate cell line (immortalized with SV40)
# Assay Method Text: MTT cytotoxicity (chemosensitivity) assay, 96 h, non-malignant cells
# Format: cell-based, human
# Setup Conditions: 96 h incubation, 37°C, 5% CO2, read-out: IC50 values (μM) ± SD, PNT-2
Just the number in µM, nothing appended.

Problem: Entry [NH2][Pt]([NH2])([Cl])[Cl] [CDDP, cisplatin, reference compound] has what IC50?
Solution: 8.5

Problem: Entry O=C1[O][Pt]2([NH][C@@H]3CCCC[C@H]3[NH]2)[O]C1=O [OXA, oxaliplatin, reference compound] has what IC50?
Solution: 1.3

Problem: Entry N.N.O=C([O-])C1(C(=O)[O-])CCC1.[Pt+2] [CARB, carboplatin, reference compound] has what IC50?
Solution: 27
